These data points were gathered from ChEMBL document CHEMBL1125001.

target.of.assay: UniProt P00760
Sequence (P00760 whole entry): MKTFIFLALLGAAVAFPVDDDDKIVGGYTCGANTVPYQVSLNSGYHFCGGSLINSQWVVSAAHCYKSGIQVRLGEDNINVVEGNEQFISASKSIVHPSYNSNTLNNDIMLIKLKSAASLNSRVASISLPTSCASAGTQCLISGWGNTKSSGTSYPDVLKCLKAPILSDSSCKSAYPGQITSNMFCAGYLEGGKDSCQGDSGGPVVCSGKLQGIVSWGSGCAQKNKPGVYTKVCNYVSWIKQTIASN
experiment.summary: Inhibition against Trypsin
pKi: −log10 of the molar value.
experimental.readout: pKi

>>> readout_value("NC(N)=Nc1cccc(Cl)c1")
2.96

A = N=C(N)Nc1ccc(F)cc1
B = N=C(N)Nc1ccc(C(=O)O)cc1 [4-GUANIDINO-BENZOIC ACID]
Recorded pKi values differ for A and B ; which one is higher? Mark your answer with the label of the selected entry.
A
(A: 3.09, B: 2.00)

----------
target.of.assay: UniProt:P00749
experiment.summary: Inhibition against Urokinase-type plasminogen activator
experimental.readout: Ki (µM)

Solved entries:
>>> readout_value("NC(N)=Nc1ccccc1[N+](=O)[O-]")
54.3
>>> readout_value("Cc1ccccc1NC(=N)N")
259
>>> readout_value("NC(N)=Nc1cccc(C(F)(F)F)c1")
419

A = NC(N)=Nc1cccc(Cl)c1
B = N=C(N)Nc1ccccc1N
C = N=C(N)Nc1ccc([N+](=O)[O-])cc1
D = CCc1ccc(NC(=N)N)cc1
E = N=C(N)Nc1ccc(C(=O)O)cc1 [4-GUANIDINO-BENZOIC ACID]
Sort ascending by Ki. Give the labels in the order requested.
C, A, D, B, E
(C: 20.6 µM, A: 61.8 µM, D: 90.7 µM, B: 388 µM, E: 745 µM)

A = Cc1ccc(NC(=N)N)cc1
B = COc1ccc(NC(=N)N)cc1
C = N=C(N)Nc1ccc(C(F)(F)F)cc1
List from greatest to least Ki. I'd appreciate it if you listed the labels in the requested order.
B, A, C
(B: 676 µM, A: 15.6 µM, C: 6.49 µM)

A = N=C(N)Nc1ccccc1 [PHENYLGUANIDINE]
B = N=C(N)Nc1ccc(Cl)cc1
Lowest Ki? choose A or B I would appreciate it if you answered with the label of your choice.
B
(B: 6.07 µM, A: 20.6 µM)
